# Assayed System: T1, Cynomolgus/Rhesus macaque PD-L1-hFc protein (ACRO Biosystems) (Cynomolgus/Rhesus macaque, UniProt G7PSE7 19-238)
# T1 construct: Bought protein; also called Cyno PD-L1; cynomolgus monkey PD-L1
# T1 sequence (G7PSE7 entry or part of it limits assumed, form in doubt): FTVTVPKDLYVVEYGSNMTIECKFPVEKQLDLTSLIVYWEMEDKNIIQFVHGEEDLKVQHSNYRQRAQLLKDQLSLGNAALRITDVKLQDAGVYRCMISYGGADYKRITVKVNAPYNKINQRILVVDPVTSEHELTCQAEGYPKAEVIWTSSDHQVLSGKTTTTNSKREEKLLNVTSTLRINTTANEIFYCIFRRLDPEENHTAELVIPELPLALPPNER
# Experiment Notes: ELISA, plate coated with Cynomolgus/Rhesus macaque PD-L1-hFc
Measured Quantity: EC50 (nM)
Express it in nM; write the number only.

Task item: Note down EC50 recorded for antibody 2 (VHH) VHH: QVQLVESGGGLVQPGGSLSLSCVASGFTFSSYAMRWVRQAPGKEPEWVAGINTGSEIVVYANSVRGRFAISRDNARDTLFLQMNSLKPEDTAVYYCATGLVSAEHDGIWGQGTQVTVSS
Reply: 0.136

Task item: Note down EC50 recorded for antibody 1 (VHH, expressed in mammalian cells) VHH: QVQLVESGGGLVQAGGSLRLSCAASGRSFSSSGMGWFRQAPGKDREFVATINSSGGDTYYRDSVEGRFTTSRDNAKNTMSLQMNDLKPEDTAVYYCAAKEGGGPSSIPAIYDYWGQGTQVTVSS
Reply: 0.133

Task item: Note down EC50 recorded for antibody 5 (VHH) VHH: QVQLVESGGGLVQAGGSLRLSCAASGRSFSSSGMGWFRQAPGKDREFVATINSSGGDTYYADSVEGRFTTSRDNAKNTMSLQMNDLKPEDTAVYYCAAKEGGGPSSIPAIFDYWGQGTQVTVSS
Reply: 0.034

Task item: Note down EC50 recorded for antibody 4 (VHH) VHH: EVQLVESGGGLVQAGDSLRLSCTASGRDFLTYGMGWFRQAPGKEREFVASINWSGSMTYYADSVKGRFTISRDNAKNTVYLQMNSLKPGDTAVYICAARRGAVTYASSNEYEHWGQGTQVTVSS
Reply: 0.034

Task item: Note down EC50 recorded for antibody 3 (VHH) VHH: EVQLVESGGGSVQTGGSLRLSCVASGRDFLTYGMGWFRQAPGKEREFVASINWSGSMTYYADSVKGRFTISRDNAKNTVYLQMNSLKPGDTAVYICAARRGAVTYASSNEYEHWGQGTQVTVSS
Reply: 0.04

Values were extracted from patent US20240327518A1.
